# Target: CYP2D6 (Homo sapiens)
# Sequence (P10635 whole entry): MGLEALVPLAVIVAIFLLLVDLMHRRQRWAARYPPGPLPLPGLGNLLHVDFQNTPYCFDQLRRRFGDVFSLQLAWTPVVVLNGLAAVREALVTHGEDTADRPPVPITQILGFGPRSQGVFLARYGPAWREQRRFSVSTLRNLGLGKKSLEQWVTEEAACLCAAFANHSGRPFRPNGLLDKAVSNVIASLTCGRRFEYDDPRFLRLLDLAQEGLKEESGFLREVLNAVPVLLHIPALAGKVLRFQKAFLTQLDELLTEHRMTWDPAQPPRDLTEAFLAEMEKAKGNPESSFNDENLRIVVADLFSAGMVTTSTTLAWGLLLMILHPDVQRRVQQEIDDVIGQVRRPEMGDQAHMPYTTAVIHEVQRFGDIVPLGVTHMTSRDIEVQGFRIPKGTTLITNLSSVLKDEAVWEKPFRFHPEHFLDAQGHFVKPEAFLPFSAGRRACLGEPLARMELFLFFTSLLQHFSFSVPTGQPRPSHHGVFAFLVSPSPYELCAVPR
# Test Details: Cytochrome P450 inhibition assay, CYP2D6
# Format: in vitro ADME
# Study Conditions: CYP activity as % of control, 10 μM, human liver microsomes
Assay Metric: Cytochrome P450 inhibition (% of control) 2D6

Worked examples, 6 molecules total:
C=CC(=O)Nc1cc(Nc2nccc(Nc3ccccc3P(C)(C)=O)n2)c(OC)cc1N(C)CCN(C)C [Compound 7e]; 87 % of control
C=CC(=O)Nc1cc(Nc2nccc(Nc3ccccc3S(=O)(=O)C(C)C)n2)c(OC)cc1N(C)CCN(C)C [Compound 7a]; 67 % of control
C=CC(=O)Nc1cc(Nc2ncc(I)c(Nc3ccccc3S(=O)(=O)C(C)C)n2)c(OC)cc1N(C)CCN(C)C [Compound 7d]; 82 % of control
C=CC(=O)Nc1cc(Nc2ncc(F)c(Nc3ccccc3S(=O)(=O)N(C)C)n2)c(OC)cc1N(C)CCN(C)C [Compound 7j]; >100 % of control
C=CC(=O)Nc1cc(Nc2ncc(F)c(Nc3ccccc3S(=O)(=O)C(C)C)n2)c(OC)cc1N(C)CCN(C)C [Compound 7b]; 95 % of control
C=CC(=O)Nc1cc(Nc2ncc(F)c(Nc3ccccc3P(C)(C)=O)n2)c(OC)cc1N(C)CCN(C)C [Compound 7f]; >100 % of control

Moving on to another molecule below.
Exercise: Endpoint output: Cytochrome P450 inhibition (% of control) 2D6 of C=CC(=O)Nc1cc(Nc2ncc(Cl)c(Nc3ccccc3S(=O)(=O)C(C)C)n2)c(OC)cc1N(C)CCN(C)C [Compound 7c] . Value?
Solution: 90 % of control
